Biological target: Bovine trypsin (Bos taurus)
Construct: Bovine trypsin is purchased from Worthington Biochemicals; purchased Worthington Biochemicals, Freehold, N.J
Sequence (P00760 24-246): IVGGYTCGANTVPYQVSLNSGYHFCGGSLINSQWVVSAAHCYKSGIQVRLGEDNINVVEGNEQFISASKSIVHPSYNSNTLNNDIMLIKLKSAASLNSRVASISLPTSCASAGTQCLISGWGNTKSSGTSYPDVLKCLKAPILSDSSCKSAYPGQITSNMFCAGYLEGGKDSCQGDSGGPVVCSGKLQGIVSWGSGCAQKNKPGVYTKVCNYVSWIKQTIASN
Experiment: Serine protease inhibition (Kass), trypsin
Type: biochemical
Mark rule met for reported Kass Trypsin of 40 L/mol × 10^6 or greater; mark rule not met for anything smaller.

Consider the worked cases shown below.
- MOLECULE: "Cl.N=C(N)NCCC[C@@H](C=O)NC(=O)[C@@H]1CCCN1C(=O)[C@@H](Cc1ccccc1)NC(=O)c1cc2ccccc2cn1"
  CLASS_LABEL: "rule not met"
- MOLECULE: "Cl.N=C(N)NCCC[C@@H](C=O)NC(=O)[C@@H]1CCCN1C(=O)[C@@H](Cc1ccccc1)NC(=O)C(F)(F)F"
  CLASS_LABEL: "rule not met"
- MOLECULE: "CCOC(=O)N[C@H](CC1CCCCC1)C(=O)N1CCC[C@H]1C(=O)N[C@H](C=O)CCCNC(=N)N.Cl"
  CLASS_LABEL: "rule met"
- MOLECULE: "Cl.Cn1c(C(=O)NC2(C(=O)N3CCC[C@H]3C(=O)N[C@H](C=O)CCCNC(=N)N)CCCCC2)cc2ccccc21"
  CLASS_LABEL: "rule not met"
- MOLECULE: "CCC[C@](Cc1ccccc1)(NC(=O)OCC)C(=O)N1CCC[C@H]1C(=O)N[C@H](C=O)CCCNC(=N)N.Cl"
  CLASS_LABEL: "rule not met"

*Q* Say whether Cl.N=C(N)NCCC[C@@H](C=O)NC(=O)[C@@H]1CCCN1C(=O)[C@@H](Cc1ccccc1)NCC1CCCCC1 shows Kass Trypsin of 40 L/mol × 10^6 or more.
*A* rule met

*Q* Say whether CN(C)S(=O)(=O)N[C@H](Cc1ccccc1)C(=O)N1CCC[C@H]1C(=O)N[C@H](C=O)CCCNC(=N)N.Cl shows Kass Trypsin of 40 L/mol × 10^6 or more.
*A* rule met

*Q* Say whether Cc1noc(C)c1S(=O)(=O)N[C@H](Cc1ccccc1)C(=O)N1CCC[C@H]1C(=O)N[C@H](C=O)CCCNC(=N)N.Cl shows Kass Trypsin of 40 L/mol × 10^6 or more.
*A* rule met

*Q* Say whether CCCCC(CCCC)(NC(=O)OCC)C(=O)N1CCC[C@H]1C(=O)N[C@H](C=O)CCCNC(=N)N.Cl shows Kass Trypsin of 40 L/mol × 10^6 or more.
*A* rule not met
